# measurement protocol: Pharmacokinetic experiment on rats: maximum plasma drug concentration (Cmax)
# Format: in vivo
# condition description: rat, male SD rats, po, 10 mg/kg, 5% CMC-Na aqueous solution
measurement type: Cmax (ng/mL)

COc1cc2nnc(-c3cc(C)on3)n2nc1OCc1ccccn1: 1780

I: Cc1cc(-c2nnc3c4ccccc4c(OCc4ccccn4)nn23)no1 [α51A-II, reference compound]
II: Cc1cc(-c2nnc3cc(C(C)(C)C)c(OCc4ccccn4)nn23)no1 [drawing 930]
Input line: Of the two listed items, which has the higher Cmax? First: I Second: II Mark your answer with the label of the selected entry.
Output line: II
(II: 216 ng/mL, I: 25.7 ng/mL)

====

# measurement protocol: Rat liver microsome stability (RLM) experiment
# Format: in vitro ADME
# condition description: pH 7.4; rat liver microsomes 0.5 mg protein/mL, NADPH, 37° C., 0-45 min
measurement type: microsomal CLint (µL/min/mg)

Worked cases, microsomal CLint given:
COc1cc2nnc(-c3cc(C)on3)n2nc1OCc1ccc2c(n1)CCN(C(CO)CO)C2: 9
COc1cc2nnc(-c3cc(C)on3)n2nc1OCc1ccc(OC2CCOC2)nn1 (stereo not shown): 1
COCc1cn2nc(COc3nn4c(-c5cc(C)on5)nnc4cc3OC)ccc2n1: 10
CCNC(=O)c1ccc(COc2nn3c(-c4cc(C)on4)nnc3cc2OC)nc1: 11.4
COCCCOc1ccc(COc2nn3c(-c4noc(C)n4)nnc3cc2OC)nn1: 14

A: COc1cc2nnc(-c3cc(C)on3)n2nc1OCc1ccc(OC2CCOCC2)nn1
B: COc1cc2nnc(-c3cc(C)on3)n2nc1OCc1ccc2c(n1)CN(C)C2
Input line: Of the two listed items, which has the higher microsomal CLint? First: A Second: B Mark your answer with the label of the selected entry.
Output line: A

A: COc1cc2nnc(-c3cc(C)on3)n2nc1OCc1ccc2c(n1)CCN(C1CCOC1)C2 (stereo not shown)
B: Cc1cc(-c2nnc3c4ccccc4c(OCc4ccccn4)nn23)no1 [α51A-II, reference compound]
Input line: Hello, I am sorting some records. Could you say if A or B has the smaller microsomal CLint value? Mark your answer with the label of the selected entry.
Output line: A

a: COc1cc2nnc(-c3cc(C)on3)n2nc1OCc1ccc2nc(C#N)cn2n1
b: Cc1cc(-c2nnc3cc(C(C)(C)C)c(OCc4ccccn4)nn23)no1 [drawing 926, reference compound]
c: COc1cc2nnc(-c3cc(C)on3)n2nc1OCc1ccc2c(n1)CN(C1CCOCC1)C2
d: COCc1ccc(COc2nn3c(-c4cc(C)on4)nnc3cc2OC)nn1
e: COc1cc2nnc(-c3cc(C)on3)n2nc1OCc1ccc2c(n1)CCN(Cc1cc(C)on1)C2
Input line: Reorder: microsomal CLint, max to min. Form entry: ranked labels (order as requested).
Output line: b, e, c, a, d

1: COc1cc2nnc(-c3cc(C)on3)n2nc1OCc1ccc(C2(F)CN(C3COC3)C2)cn1
2: COc1cc2nnc(-c3cc(C)on3)n2nc1OCc1ccc2c(n1)CCN(C1CCOCC1)C2
3: CCNC(=O)c1ccc(COc2nn3c(-c4cc(C)on4)nnc3cc2C(C)(C)C)nc1 [Compound 42 in CN107344936A, reference compound]
4: COc1cc2nnc(-c3cc(C)on3)n2nc1OCc1ccccn1
Input line: Reorder: microsomal CLint, max to min. Form entry: ranked labels (order as requested).
Output line: 3, 2, 1, 4
(3: 143 µL/min/mg, 2: 22 µL/min/mg, 1: 6 µL/min/mg, 4: 0.3 µL/min/mg)
